Assay: Cell viability MTS assay (cytotoxicity)
Type: cell-based
Conditions: human; A-431 cells, 48 hrs incubation; read-out: IC50, MTS assay for cytotoxicity against A-431
Please assign a class to every record based on measured IC50 at 48 h, with ranges low end: < 50 µM; middle: ≥ 50 µM and < 100 µM; high end: ≥ 100 µM

Completed entries (count: 5):
[
  {
    "COMPOUND": "O=C(Nc1ccc(Oc2ccccc2)cc1)c1cccnc1Nc1ccc(Oc2ccccc2)cc1",
    "CLASS_ASSIGNMENT": "high end"
  },
  {
    "COMPOUND": "CC(C)(C)OC(=O)N1CCC(Nc2ncccc2C(=O)Nc2cccc(Cl)c2)CC1",
    "CLASS_ASSIGNMENT": "middle"
  },
  {
    "COMPOUND": "CCCCC(CC)CNC(=O)c1cccnc1NC1CCN(Cc2ccccc2)CC1 (stereo not drawn)",
    "CLASS_ASSIGNMENT": "low end"
  },
  {
    "COMPOUND": "COc1ccc(NC(=O)c2cccnc2NC2CCN(Cc3ccccc3)CC2)cc1OC",
    "CLASS_ASSIGNMENT": "high end"
  },
  {
    "COMPOUND": "O=C(Nc1cccc(Cl)c1)c1ccc(Cl)nc1NC1CCN(Cc2ccccc2)CC1",
    "CLASS_ASSIGNMENT": "middle"
  }
]

Asked: Kindly identify the class of O=C(Nc1cccc(Cl)c1)c1cccnc1SC1CCN(Cc2ccccc2)CC1 .
Given back: middle

Asked: // bin(item) where item = Cc1cnc(NC(=O)c2cccnc2NC2CCN(Cc3ccccc3)CC2)s1
Given back: high end

Asked: Which category fits this record: O=C(Nc1cccc(Cl)c1)c1cc(F)c(Cl)nc1NC1CCN(CCO)CC1
Given back: low end

* * *

Assay: Cell viability MTS assay (cytotoxicity)
Type: cell-based
Conditions: human; A-431 cells, 48 hrs incubation; read-out: IC50, MTS assay for cytotoxicity against A-431
Reported IC50 at 48 h values are given for each entry in this list.
State just the number; it will be interpreted in µM.

[
  {
    "LINE_NOTATION": "O=C(Nc1cccc(Cl)c1)c1cccnc1N[C@@H]1CCCNC1",
    "IC50 at 48 h / µM": 88.9
  },
  {
    "LINE_NOTATION": "C=CCN1CCC(Nc2ncccc2C(=O)Nc2cccc(Cl)c2)CC1",
    "IC50 at 48 h / µM": 170
  },
  {
    "LINE_NOTATION": "O=C(Nc1cccc(Cl)c1)c1cccnc1N[C@H]1CCCN(CCO)C1",
    "IC50 at 48 h / µM": 111
  }
]

Asked: Supply IC50 at 48 h value. Item: CCN(CC)CCN1CCC(Nc2ncccc2C(=O)Nc2cccc(Cl)c2)CC1
Given back: 94.6

Asked: Query IC50 at 48 h for O=C(Nc1cccc(Cl)c1)c1cccnc1N[C@@H]1CCCN(Cc2ccccc2)C1
Given back: 20.9

* * *

Experiment: Cell viability MTS assay (cytotoxicity)
Format: cell-based
Conditions: human; A-431 cells, 48 hrs incubation; read-out: IC50, MTS assay for cytotoxicity against A-431
Response field label takes Yes when IC50 at 48 h is strictly below 40 µM and No in all other cases.

The examples below pair each entry with its known result.
[
  {
    "MOLECULE": "CC1(C)CNc2cc(NC(=O)c3cccnc3NC3CCN(Cc4ccccc4)CC3)ccc21",
    "CLASS_ASSIGNMENT": "No"
  },
  {
    "MOLECULE": "CCCCC(CC)CNC(=O)c1ccc(Cl)nc1NC1CCN(CCO)CC1 (centres unmarked)",
    "CLASS_ASSIGNMENT": "Yes"
  }
]

Asked: Record CCN(CC)CCNC(=O)c1c(C)[nH]c(/C=C2\C(=O)Nc3ccc(F)cc32)c1C [Sunitinib, sunitinib, reference compound] : is its IC50 at 48 h strictly below 40 µM?
Given back: Yes

Asked: I wonder whether O=C(Nc1cccc(Cl)c1)c1cccnc1Nc1ccc(Oc2ccccc2)cc1 has IC50 at 48 h below 40 µM. Can you tell?
Given back: Yes

Asked: IC50 at 48 h strictly < 40 µM for this molecule? CCCCC(CC)CNC(=O)c1cccnc1NC1CC(C)(C)NC(C)(C)C1 (centres unmarked)
Given back: No

Asked: Is IC50 at 48 h strictly under 40 µM for the entry O=C(Nc1cccc(Cl)c1)c1cccnc1N[C@H]1CCCNC1 ?
Given back: No

Asked: Hello, is IC50 at 48 h of the following molecule strictly smaller than 40 µM? O=C(Nc1cccc(Cl)c1)c1cc(F)c(Cl)nc1NC1CCN(Cc2ccccc2)CC1
Given back: Yes

* * *

Assay: Cell viability MTS assay (cytotoxicity)
Assay type: cell-based
Conditions: human; A-431 cells, 48 hrs incubation; read-out: IC50, MTS assay for cytotoxicity against A-431
REPORTED_METRIC: IC50 at 48 h (µM)
Give the value in µM but do not write µM after it.

The following compounds have reported results that may help.
[
  {
    "COMPOUND": "CC(c1ncnc(Cl)c1F)N1CCC(Nc2ncccc2C(=O)Nc2cccc(Cl)c2)CC1 (centres unmarked)",
    "UNIT_ANNOTATION": "µM",
    "IC50 at 48 h": 26.1
  },
  {
    "COMPOUND": "CC1(C)CC(Nc2ncccc2C(=O)Nc2cccc(Cl)c2)CC(C)(C)N1CCO",
    "UNIT_ANNOTATION": "µM",
    "IC50 at 48 h": 81.9
  },
  {
    "COMPOUND": "O=C(Nc1cccc(Cl)c1)c1cccnc1NN1CCN(CCO)CC1",
    "UNIT_ANNOTATION": "µM",
    "IC50 at 48 h": 164
  },
  {
    "COMPOUND": "O=C(NC(Cc1ccccc1)c1ccccc1)c1cccnc1NC1CCN(Cc2ccccc2)CC1 (centres unmarked)",
    "UNIT_ANNOTATION": "µM",
    "IC50 at 48 h": 39.7
  },
  {
    "COMPOUND": "CC1(C)CC(Nc2ncccc2C(=O)Nc2cccc(Cl)c2)CC(C)(C)N1",
    "UNIT_ANNOTATION": "µM",
    "IC50 at 48 h": 54.5
  },
  {
    "COMPOUND": "O=C(Nc1cccc(Cl)c1)c1cccnc1NC1CCN(Cc2ccccc2)CC1",
    "UNIT_ANNOTATION": "µM",
    "IC50 at 48 h": 40.6
  }
]

Asked: Name the recorded IC50 at 48 h of the item O=C(Nc1ccc(Oc2ccccc2)cc1)c1cccnc1NC1CCN(Cc2ccccc2)CC1 in your answer.
Given back: 22.2

Asked: Report measured IC50 at 48 h; entry is O=C(Nc1cccc(Cl)c1)c1cccnc1NC1CCN(Cc2cccnc2)CC1
Given back: 102
